B1: CPEB3 Ribozyme (parent)
chain: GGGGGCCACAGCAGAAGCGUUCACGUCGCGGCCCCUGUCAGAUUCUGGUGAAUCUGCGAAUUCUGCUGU

Variants of: B1
assayDetails: self-cleavage, relative activity (ratio to wild type); higher = more cleavage; co-transcriptional
# self-cleavage per entry
// no unit string in output, number only

Some solved cases for reference:
alteration: C18G U49C
self-cleavage: 0.147
//
alteration: C35G A52U
self-cleavage: 0.474
//
alteration: A52C C54A
self-cleavage: 0.615

Suppose we examine the variant C7U A60U ; what self-cleavage value has been reported?
0.244

What value of measured self-cleavage is listed for U43G U67A ?
0.79
